Listed below: GI50 values for each entry.
Test system: KM12
protocol: NCI tumour cell line growth inhibition, 48 h
The source made the active and inactive calls. Cut-off read from the data, not from the text of the source: active = GI50 up to about 1.1 µM and inactive = higher.

Completed entries (count: 3):
COC(=O)C(Cc1nc2ccccc2nc1O)/C(=N\NC(C)(C)C)C(=O)Nc1c(C)cc(Br)cc1C (centres undefined) :: 41 µM (inactive)
C[C@@H]1C[C@H]2[C@@H]3CCC4=CC(=O)C=C[C@]4(C)[C@@]3(F)[C@@H](O)C[C@]2(C)[C@@]1(O)C(=O)CO [DEXAMETHASONE] :: > 100 µM (inactive)
Cc1ccc(S(=O)(=O)NC(=O)C2S(=O)(=O)OCCOS2(=O)=O)cc1 :: > 100 µM (inactive)

# next compound below
Fill in: GI50 of CSC1NC=Nc2c1sc(=S)n2-c1ccccc1 (centres undefined) is ___
> 100 µM (inactive)

###

Listed below: GI50 values for each entry.
Test system: OVCAR-5
protocol: NCI tumour cell line growth inhibition, 48 h
Activity calls are given as the source filed them. No stated cut-off is given here; in the data, active = GI50 up to about 1.1 µM and inactive = higher.

Completed entries (count: 4):
CC(=O)Oc1ccc(CO)cc1OC(C)=O :: > 100 µM (inactive)
COC(=O)c1cnc(Cl)c([N+](=O)[O-])c1 :: 17.7 µM (inactive)
COC(=O)CCC(=O)NC1c2cccc3cccc(c23)Cn2c(=O)n(C)c(=O)n21 (stereo unspecified) :: > 100 µM (inactive)
N#CC1(Cc2ccccc2)CCCCN1C(=O)c1ccccc1 (stereo unspecified) :: > 100 µM (inactive)

Kindly state the measured GI50 obtained for CCCCC(Sc1cc(Cl)c(C)cc1S(=O)(=O)Nc1nc(N)n[nH]1)C(=O)OC (stereo unspecified) with OVCAR-5.
> 10 µM (inactive)

Kindly state the measured GI50 obtained for CC(=O)c1c(C)cc2cccc(OC3OC(CO)C(O)C(O)C3O)c2c1O.CC1OC(O)C(O)C(O)C1O (stereo unspecified) with OVCAR-5.
> 100 µM (inactive)

Kindly state the measured GI50 obtained for `NC(=O)COc1ccccc1` with OVCAR-5.
> 100 µM (inactive)

Kindly state the measured GI50 obtained for `CN1CCC(C(=O)NNc2ccccc2)CC1` with OVCAR-5.
8.3 µM (inactive)

###

Test system: COLO 205
protocol: NCI tumour cell line growth inhibition, 48 h
Active and inactive are the calls of the source. Cut-off read from the data, not from the text of the source: active = GI50 up to about 1.1 µM and inactive = higher.
Hello, when you answer, please use one of the following outcomes: y for active, n for inactive

Worked examples, 5 compounds total:
CC(C)(C)[Si](C)(C)OCC1OC(n2ccc(=O)[nH]c2=O)C(O[Si](C)(C)C(C)(C)C)/C1=C/C#N (stereo not given) :: n
COC1CC(CC2CCC(C)C(C(C)C(=O)O)O2)OC2(OC(C)(C3CCC(C)(C4OC(C5OC(O)(CO)C(C)CC5C)CC4C)O3)CC2C)C1C (stereo not given) :: y
COc1ccc(C(=O)/C=C2\C(=O)Nc3ccc(Br)cc32)cc1 :: n
CCC(C)C(NC(=O)C(CCCC[N+](=N)N)NC(=O)C(CCCC[N+](=N)N)NC(=O)c1ccc(OC)cc1)C(=O)NC(CCCC[N+](=N)N)C(=O)N1CCCC1C(=O)NC(CCCCN)C(=O)NC(CC(C)C)C(N)=O (stereo not given) :: n
CCOC(=O)c1sc2nc(SC)nc3c2c1N=CN3c1ccc(Br)cc1 :: n

// outcome(item) with item = CC(=O)Nc1ccc(N2C(=O)CS(=O)(=O)C2c2cccc(Oc3ccccc3)c2)cc1 (stereo not given)
n

// outcome(item) with item = Cc1cccc(C)c1NC(=O)C(=O)C(c1ccccc1Cl)S(=O)(=O)Cc1ccccc1Cl (stereo not given)
n

// outcome(item) with item = `O=C(CSCC(=O)N/N=C\c1ccccc1F)N/N=C\c1ccccc1F`
n

// outcome(item) with item = `O=[N+]([O-])C1(CO)COC2(OC1)c1ccccc1-c1ccccc12`
n

// outcome(item) with item = CC(=O)OCC1OC(n2c(N)c(C#N)c(C)c(C#N)c2=S)C(OC(C)=O)C(OC(C)=O)C1OC(C)=O (stereo not given)
n

// outcome(item) with item = `COC(=O)N/N=C(\C)CC(=O)Nc1ccc(Cl)cc1`
n

###

Tested on: IGROV-1
protocol: NCI tumour cell line growth inhibition, 48 h
The source made the active and inactive calls. Rule as the data show it: active = GI50 up to about 1.1 µM and inactive = higher.
Hello, when you answer, please use one of the following outcomes: active, inactive

Worked examples, 3 compounds total:
C[C@@H](C1CC[C@H]2[C@@H]3[C@@H]4O[C@@H]4[C@@]4(O)CC=CC(=O)[C@]4(C)[C@H]3C[C@H](O)[C@]12C)[C@H]1C[C@]2(C)O[C@]2(C)C(=O)O1 (stereo partly specified) :: inactive
CN1c2c(O)nc(N)nc2NCC1CCNc1ccc(C(=O)NC(CCC(=O)O)C(=O)O)cc1 (stereo unspecified) :: inactive
CC1CC(c2ccc([N+](=O)[O-])cc2)=Nc2ccccc2[S+]1[O-] (stereo unspecified) :: inactive

// outcome(item) with item = `O=C1OC2(CCCCC2)C(Oc2ccc(Cl)cc2)=C1F`
inactive

// outcome(item) with item = CCCCCCNC(=O)C(C)C1CCC2(C)C=CC(=O)C(C)=C2C1O (stereo unspecified)
inactive

// outcome(item) with item = CC(C#N)NCc1ccc(C(C)NC(C)C#N)cc1 (stereo unspecified)
inactive

// outcome(item) with item = `Nc1nc(N)c(N=Nc2ccc([As](=O)(O)O)c(O)c2)c(N)n1`
inactive

// outcome(item) with item = `CNc1nc(N)nc(Nc2ccc(I)cc2)c1N=O`
inactive

// outcome(item) with item = `C/C(=N\Nc1nc2ccccc2n1C)c1cnccn1`
active

// outcome(item) with item = CC1(C)COC2(OC1)C1=NS(=O)(=O)CC13CCC2C3(C)C (stereo unspecified)
inactive

// outcome(item) with item = COc1ccc(/C(=N/NC(=O)NN)C(c2ccc(OC)cc2)C2(O)CNc3c(Cl)cc(Cl)cc32)cc1 (stereo unspecified)
inactive

// outcome(item) with item = `Cc1ccc2[nH]c3c(C)c4c(c(C)c3c2c1)CN(C)C=C4`
active

// outcome(item) with item = CCOc1ccc(NC(=O)CC2Sc3ccccc3NC2=O)cc1 (stereo unspecified)
inactive

// outcome(item) with item = `COC(=O)c1cnc(Cl)c([N+](=O)[O-])c1`
inactive

// outcome(item) with item = COC(=O)C(Cc1c(-c2[nH]c3ccccc3c2CC(NC(C)=O)C(=O)OC)[nH]c2ccccc12)NC(C)=O (stereo unspecified)
inactive

// outcome(item) with item = `COc1ccccc1-n1nnc2c(N)nc(N)nc21`
inactive

// outcome(item) with item = Cc1cn(C2CC(N=[N+]=[N-])C(CO)O2)c(=O)n(CCCCO)c1=O (stereo unspecified)
inactive

// outcome(item) with item = `C=CCN1C(=O)N/C(=C\c2ccc(Cl)cc2)C1=O`
inactive

// outcome(item) with item = `CC1=NN(c2ccccc2)C(=O)/C1=C/c1ccc(O)cc1`
inactive

// outcome(item) with item = `COC(=O)c1sc(C(=O)OC)c2c1CSC2`
inactive

// outcome(item) with item = OCC1OC(N2CCN(C3OC(CO)C(O)C(O)C3O)CC2)C(O)C(O)C1O (stereo unspecified)
inactive

###

System: SNB-75
protocol: NCI tumour cell line growth inhibition, 48 h
The source made the active and inactive calls. Rule as the data show it: active = GI50 up to about 1.1 µM and inactive = higher.
observed-property: GI50

Completed entries (count: 3):
CCCCS(=O)(=O)CCC(N)C(=O)O (stereo unspecified) :: > 100 µM (inactive)
S=C(Nc1c2c(nc3ccccc13)CCCC2)Nc1c2c(nc3ccccc13)CCCC2 :: > 100 µM (inactive)
COc1cc2c3c4c1OCc1c5c(cc(c1-4)CC3[N+](C)(C)CC2)OCO5 (stereo unspecified) :: 26.7 µM (inactive)

Fill in: GI50 of `COC(=O)N/N=C(\C)CC(=O)Nc1ccc(Cl)cc1` is ___
98.6 µM (inactive)

Fill in: GI50 of `Cc1ccc(C(=O)O/N=C2/CCC/C2=C\c2ccccc2)cc1` is ___
69.3 µM (inactive)

###

System: CCRF-CEM
protocol: NCI tumour cell line growth inhibition, 48 h
Active and inactive are the calls of the source. No stated cut-off is given here; in the data, active = GI50 up to about 1.1 µM and inactive = higher.
Listed below: GI50 values for each entry.

Completed entries (count: 5):
CC1CNC(c2ccc3c(c2)Cc2cc(C4=NC(C)CN4)ccc2-3)=N1 (configuration not stated) :: > 100 µM (inactive)
CCOC(=O)c1ccc(NC(=O)O/N=C(/Cl)CC)cc1 :: 1.82 µM (inactive)
CN(CCCNC(=O)c1c2ccc3ccccc3c2nn1C)CCCNC(=O)c1c2ccc3ccccc3c2nn1C :: 8.18 µM (inactive)
c1ccc2[nH]c(CNc3ccc(C4C[Se]N=N4)cc3)nc2c1 (configuration not stated) :: 25.7 µM (inactive)
C=CCCOC(=O)CO[N+](=O)[O-] :: > 100 µM (inactive)

Kindly state the measured GI50 obtained for C/C(=C/CC[C@]1(CO)CC[C@]2(C)[C@H](CC[C@@H]3[C@@]4(C)CC[C@H](OC5OC(CO)C(O)C(O)C5OC5OC(CO)C(O)C(O)C5O)C(C)(C)[C@@H]4CC[C@]32C)[C@H]1O)CO (some centres not stated) with CCRF-CEM.
> 100 µM (inactive)

Kindly state the measured GI50 obtained for Cc1ccc(SCC(CSCCO)OCn2cnc3c2N=C(N)NC32OCCO2)cc1 (configuration not stated) with CCRF-CEM.
> 100 µM (inactive)
